tested on: Staphylococcus aureus MR (methicillin resistant); assay: MIC, agar dilution method, Mueller-Hinton agar; type: cell-based; details: 1×10^4 cfu/spot, 35° C., 24 hours
property: MIC

Which MIC reading was recorded for the compound CC(=O)NC[C@H]1CN(c2ccc([C@@]3(C#N)[C@@H]4CN(C(=O)CO)C[C@@H]43)cc2)C(=O)O1 [Example 8] ?
1 µg/mL

---

tested on: Staphylococcus aureus MR (methicillin resistant); experiment: MIC, agar dilution method, Mueller-Hinton agar; type: cell-based; conditions: 1×10^4 cfu/spot, 35° C., 24 hours
Each entry below carries its reported MIC.
Answer format: numeric, µg/mL implied, no suffix.

Which measured MIC belongs to CC(=O)NC[C@H]1CN(c2ccc(N3CCOCC3)c(F)c2)C(=O)O1 [Linezolid, reference compound] , tested on Staphylococcus aureus MR (methicillin resistant)?
1

Which measured MIC belongs to CC(=O)NC[C@H]1CN(c2ccc([C@@]3(C#N)[C@@H]4CN(S(C)(=O)=O)C[C@@H]43)cc2)C(=O)O1 , tested on Staphylococcus aureus MR (methicillin resistant)?
0.5

Which measured MIC belongs to CC(=O)NC[C@H]1CN(c2ccc([C@@]3(C#N)[C@@H]4CN(C#N)C[C@@H]43)cc2)C(=O)O1 , tested on Staphylococcus aureus MR (methicillin resistant)?
0.5

Which measured MIC belongs to CC(=O)NC[C@H]1CN(c2ccc([C@@]3(C#N)[C@@H]4CCC[C@@H]43)cc2)C(=O)O1 , tested on Staphylococcus aureus MR (methicillin resistant)?
0.25
